ENDPOINT: logP

CC(=O)Nc1c(C)cccc1[N+](=O)[O-]; 0.61
CC(=O)Nc1cc(C(F)(F)F)c(F)cc1F; 2.34
CC(=O)Nc1c(C)cccc1Cl; 1.22
COc1ccc(C)c(OC)c1; 2.76
O=[N+]([O-])c1ccc(Cl)cc1[N+](=O)[O-]; 2.18

A = COc1cccc(OC)c1C
B = CC(=O)Nc1c(C)cccc1C
C = CC(=O)Nc1ccc(Cl)cc1C(F)(F)F
D = COc1cccc(OC)c1C(N)=O
E = CC(=O)Nc1c(F)cccc1F
(Q) Sort (5 compounds) by logP: min first. Respond with an ordered listing of the labels, as requested.
(A) D, E, B, C, A

// data source = the SangsterLogP compilation
